# assay_target: T1, wildtype feline IL-31 protein (Feline_IL31_wildtype) (feline)
# T1 construct: Full length feline IL-31 with C-terminal His tag, secreted from ExpiCHO cells; also called fIL-31
# T1 chain: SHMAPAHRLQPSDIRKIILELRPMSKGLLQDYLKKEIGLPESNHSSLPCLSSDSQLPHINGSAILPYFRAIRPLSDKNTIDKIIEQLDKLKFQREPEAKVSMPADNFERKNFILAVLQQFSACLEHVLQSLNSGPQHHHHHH
# experiment_summary: Biacore, feline IL-31 chip, mAb 100 nM, share of points within parent mean +/-3 SD
# Design: key: % of mutant data points within parent mAb mean ±3 SD
What Binding Similarity score was measured for each of the following?
Numbers only.

# binder, measurement
records = [
    ("A09 (antibody, V domains shown) VH: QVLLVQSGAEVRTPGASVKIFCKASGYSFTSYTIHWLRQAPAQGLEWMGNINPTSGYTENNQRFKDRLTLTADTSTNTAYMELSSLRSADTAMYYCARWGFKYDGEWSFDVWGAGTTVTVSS VL: EIQMTQSPSSLSASPGDRVTITCRASQGASIWLSWYQQKPGNIPKVLINKASNLHIGVPSRFSGSGSGTDFTLTISSLEPEDAATYYCLQSQTYPLTFGGGTKLEIK", 100),
]

Report Binding Similarity score for each item below.
1. A27 (antibody, V domains shown) VH: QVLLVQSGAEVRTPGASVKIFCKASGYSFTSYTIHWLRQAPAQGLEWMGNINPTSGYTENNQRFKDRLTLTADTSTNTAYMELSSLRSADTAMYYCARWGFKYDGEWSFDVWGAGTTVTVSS VL: EIQMTQSPSSLSASPGDRVTITCRASQGISIWLSWYQQKPGNIPKVLINKASNLHIGVPSRFSGSGSGTDFTLTISSLEPEDAATYYCLQSQTYPATFGGGTKLEIK
2. A20 (antibody, V domains shown) VH: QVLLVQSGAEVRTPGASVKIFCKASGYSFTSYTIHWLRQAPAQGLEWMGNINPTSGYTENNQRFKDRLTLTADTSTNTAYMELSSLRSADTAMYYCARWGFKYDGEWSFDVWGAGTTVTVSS VL: EIQMTQSPSSLSASPGDRVTITCRASQGISIWLSWYQQKPGNIPKVLINKASNLHAGVPSRFSGSGSGTDFTLTISSLEPEDAATYYCLQSQTYPLTFGGGTKLEIK

11.7
31.3
